target: T1, human PD-1 on CHO-K1 cells (human, UniProt Q15116 25-288); assay: flow cytometry blocking assay: FITC human PD-L1-Fc on human PD-1 CHO-K1 cells (Example 11; the legend paragraph 42 calls it binding to hu PD-L1)
T1 construct: also called Human PD-1 transfected CHO-K1 cells
T1 sequence (Q15116 25-288): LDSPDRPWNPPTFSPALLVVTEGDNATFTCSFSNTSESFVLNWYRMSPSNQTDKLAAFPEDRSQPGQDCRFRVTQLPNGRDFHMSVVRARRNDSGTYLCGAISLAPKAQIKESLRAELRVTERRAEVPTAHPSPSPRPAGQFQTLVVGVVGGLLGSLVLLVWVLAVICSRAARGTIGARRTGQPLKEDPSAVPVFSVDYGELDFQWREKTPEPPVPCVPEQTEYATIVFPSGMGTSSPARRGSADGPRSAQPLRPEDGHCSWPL
readout-kind: IC50 (nM)
Dear colleague, please return just the value in nM, with no unit written.

{"columns": ["binder", "IC50 / nM"],
 "data": [
  ["PD-06 (antibody, V domains shown, also called anti-PD-1 mab PD-06) VH: QVQLVQSGAEVKKPGASVKVSCKASGYTFTSYYIHWVRQAPGQRLEWMGWIFPGSGNSKYNENFKGRVTITRDTSASTAYMELSSLRSEDTAVYFCASETYDYGDYWGQGTLVTVSS VL: DIQMTQSPSSLSASVGDRVTITCKASQNVGTNVAWYQQKPGKAPKSLIYSASYRYSGVPSRFSGSGSGTDFTLTISSLQPEDFATYFCQQYYSYPYTFGQGTKLEIK", 0.65]
]}

Annotate the binder PD-05 (antibody, V domains shown, also called anti-PD-1 mab PD-05) VH: QVQLVQSGAEVKKPGASVKVSCKASGYTFTTYYIYWVRQAPGQGLEWMGGINPGNGGTNFNEKFKIRVTMTRDTSISTAYMELSSLRSEDTAVYYCARRYHGYDGGLDYWGQGTLVTVSS VL: DIVLTQSPASLAVSPGQRATITCRASKSVSTSGFSYIHWYQQKPGQPPKLLIYLASNLESGVPARFSGSGSGTDFTLTINPVEANDTANYYCQHTWELPNTFGGGTKVEIK with its measured IC50.
0.56

Annotate the binder PD-02 mab (antibody, V domains shown) VH: QVQLVQSGAEVKKPGASVKVSCKASDYTFTNSYLYWLRQAPGQGLEWMGGINPSNGGTNFNEKFKTRTTSTRDTSISTAYMELSRLRSDDTVVYYCTRRDYNYDGGFDSWGQGTLVTVSS VL: DIQMTQSPSSLSASVGDRVTFTCRASSTLYSNYLHWYQQKPGKAPKLLIYRASFLASGVPSRFSGSGSGTDFTLTISSLQPEDFATYYCQQGSSIPLTFGGGTKVEIK with its measured IC50.
0.54

Annotate the binder PD-04 (antibody, V domains shown, also called anti-PD-1 mab PD-04) VH: QVQLVQSGAEVKKPGASVKVSCKASDYTFTNSYIYWVRQAPGQGLEWMGGINPSNGGTNFNEKFKTRVTSTRDTSISTAYMELSRLRSDDTVVYYCARRDYNYDGGFDSWGQGTLVTVSS VL: DIQMTQSPSSLSASVGDRVTFTCRASSSLYSNYLHWYQQKPGKAPKLLIYRASFLASGVPSRFSGSGSGTDFTLTISSLQPEDFATYYCQQGSSIPLTFGGGTKVEIK with its measured IC50.
0.82
